Values compiled from the supplement of paper PMC6555819.

For each of the sequences below, state its PBM binding z-score.
# Tested on: LXRa homodimer (NR concentration 270 nM)
# Assay Explanation: PBM binding z-score (relative to random genomic background probes); higher = stronger binding; sequences stand for … in GC…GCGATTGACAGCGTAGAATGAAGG
Answers are plain numbers.

Previously resolved entries follow.
Sequence Code	Study Target	PBM binding z-score
CAAACTGGGTCAAGGTCAAAGTCGGTTTGTGCCA	LXRa homodimer (NR concentration 270 nM)	2.42
ATCTCTAGGTAACGTTCAGTGAAAGATCGATAGA	LXRa homodimer (NR concentration 270 nM)	-0.179
GCGACTGGGGCATCAGCAGGTAACCATAACTTAA	LXRa homodimer (NR concentration 270 nM)	-0.127
CCTACTGGGCCAGCAGGTCATTGATATCAACGTT	LXRa homodimer (NR concentration 270 nM)	0.496

Could you tell me PBM binding z-score for each of these sequences? They are listed below.
1. TCTTGTAGATCAATAGAGGTTAGGAAAGTGCGCT
2. GTACCAAGGTGAGTAGGTCGTTGATGAGTAGGCG
3. GGAACGAGGGCAAGTTGGTAGCAGAGTTTGATGG
4. CTTTACGGGTCACTCCAGGTTATAGCATCGGAGT
5. GGAACGAGGGCATTCGCGTTGATAGCATGGCGAT

1. 0.276
2. -0.31
3. -0.29
4. 3.92
5. -0.65

----------
I'd be grateful if you could share measured PBM binding z-score for these entries.
# Test system: PPARg DBDmut IVT, anti-PPARg (DBD mutation: PPARg1 K132A/R137A, NR concentration 270 nM)
# Assay Explanation: PBM binding z-score (relative to random genomic background probes); higher = stronger binding; sequences stand for … in GC…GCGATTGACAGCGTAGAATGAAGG
Give bare numbers.

Sequence Code	Study Target	PBM binding z-score
CGTCCACGGTCAATGCTAGGTCAGTGAAAGCATT	PPARg DBDmut IVT, anti-PPARg (DBD mutation: PPARg1 K132A/R137A, NR concentration 270 nM)	-1.45
CTCGAAAGGTCGGCTGAGGTGAGTATACGGATAA	PPARg DBDmut IVT, anti-PPARg (DBD mutation: PPARg1 K132A/R137A, NR concentration 270 nM)	-0.891
CGCCCAAGGTCAAGGTCAGTGAAAGAGACTCGAA	PPARg DBDmut IVT, anti-PPARg (DBD mutation: PPARg1 K132A/R137A, NR concentration 270 nM)	-0.556
ATCGAAAGGTCGAAGGTGAGTAGACCCACCCGAA	PPARg DBDmut IVT, anti-PPARg (DBD mutation: PPARg1 K132A/R137A, NR concentration 270 nM)	0.456
CAAACTATGTCAAAGGTCAAAGTCGAGCCAACCA	PPARg DBDmut IVT, anti-PPARg (DBD mutation: PPARg1 K132A/R137A, NR concentration 270 nM)	0.733
ACATACGGGTCAACGAGGTTATAGCACGCGTATA	PPARg DBDmut IVT, anti-PPARg (DBD mutation: PPARg1 K132A/R137A, NR concentration 270 nM)	0.961
ACTAGCAGGCCAAGTTTGGGTCACTCAAACAAAG	PPARg DBDmut IVT, anti-PPARg (DBD mutation: PPARg1 K132A/R137A, NR concentration 270 nM)	-1.37
CCGACTGGGGCACGGTTACCATAACGCACAGCCA	PPARg DBDmut IVT, anti-PPARg (DBD mutation: PPARg1 K132A/R137A, NR concentration 270 nM)	-0.566
CCGAGTAGGTTAGGGGGCATTCAGGCAACGGTGA	PPARg DBDmut IVT, anti-PPARg (DBD mutation: PPARg1 K132A/R137A, NR concentration 270 nM)	4.7
GCGACTCGGGCAAAGCAGGTTACCATAAGGTTGG	PPARg DBDmut IVT, anti-PPARg (DBD mutation: PPARg1 K132A/R137A, NR concentration 270 nM)	-1.92

Kindly give each listed record's PBM binding z-score.
1. ATCTCTAGGTAAAACTTCAGTGAATCCCGAGGAT
2. GGAACGAGGGCAAGTAGATAGCAGAGTTTGATGG

0.94
-0.505
